Just for reference, ChEMBL document CHEMBL1135725 is where these values come from.

target: Nitric oxide synthase 1 (Rattus norvegicus); experiment: Nitric oxide (NO) formation during oxidation of NADPH and O2, catalyzed by NOS I was detected spectrophotometrically using hemoglobin assay; assay type: functional
measured.quantity: NOHA

A selection of reference data follows.
- smiles: "N=C(NO)Nc1ccc(Cl)cc1"
  NOHA: "< 0.2%"
- smiles: "Cc1ccc(NC(=N)NO)cc1"
  NOHA: "< 0.2%"

// switching to the query molecule
Problem: Query (molecule): "N/C(=N/c1cccc(CO)c1)NO" ; field requested: NOHA
Result: < 0.2%
